Assay: Pharmacokinetic evaluation after single iv and po administration to mice
Format: in vivo, C57BL/6J male mice
Settings: male, C57BL/6J, mouse, 1 mg/kg; iv 1 mg/5 ml/kg single dose; plasma
Protocol: The concentrations of compound 35 and its metabolites in plasma were measured, and oral absorbability (bioavailability) was evaluated. Systemic clearance was calculated for the iv administration, and pharmacokinetic features were determined. The concentrations of compound 76 and its metabolites in plasma were measured, and oral absorbability (bioavailability) was evaluated. Systemic clearance was calculated for the iv administration, and pharmacokinetic features were determined. […]
MEASUREMENT LABEL: half-life (h)
Answer format: numeric, h implied, no suffix.

Sure, the documented half-life for CC(C)(C)C(=O)Nc1ccc(CNC(=O)c2cccnc2)cn1 is 1.14

Consider O=C(NCc1ccc(NC(=O)c2ccccc2)nc1)c1cccnc1 . Its measured half-life is 2.81

What the record says about O=C(NCCCOCCOCCCNC(=O)c1cccnc1)c1cccnc1 : half-life is 1.9

---

molecular target: nicotinamide phosphoribosyl transferase (NAMPT) (Homo sapiens, UniProt P43490); construct: purchased Medical & Biological Laboratories Co., Ltd. (MBL); assay: NAMPT activity measurement (NMN fluorescence detection); type: biochemical; settings: NAMPT recombinant protein; 10 µM Nam
Sequence (P43490 whole entry, species assumed): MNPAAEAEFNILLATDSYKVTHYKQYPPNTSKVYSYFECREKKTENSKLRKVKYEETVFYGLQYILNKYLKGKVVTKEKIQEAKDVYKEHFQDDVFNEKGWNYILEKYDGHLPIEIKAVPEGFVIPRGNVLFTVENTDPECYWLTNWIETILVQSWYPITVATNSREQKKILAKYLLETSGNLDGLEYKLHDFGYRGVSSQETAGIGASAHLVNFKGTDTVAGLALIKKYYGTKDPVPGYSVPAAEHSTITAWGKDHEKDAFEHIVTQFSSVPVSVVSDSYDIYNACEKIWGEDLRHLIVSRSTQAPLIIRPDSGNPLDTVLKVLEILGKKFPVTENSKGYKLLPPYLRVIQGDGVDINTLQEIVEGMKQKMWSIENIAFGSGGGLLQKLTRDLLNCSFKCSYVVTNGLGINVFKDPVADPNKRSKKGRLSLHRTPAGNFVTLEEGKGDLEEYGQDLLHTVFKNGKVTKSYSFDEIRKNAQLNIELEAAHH
MEASUREMENT LABEL: Evaluation on NAMPT inhibitory

Recorded Evaluation on NAMPT inhibitory, per entry:
MOLECULE: CC(C)CC(=O)Nc1ccc(CNC(=O)c2cccnc2)cn1
EXPERIMENTAL SYSTEM: nicotinamide phosphoribosyl transferase (NAMPT) (Homo sapiens, UniProt P43490)
Evaluation on NAMPT inhibitory: ○
//
MOLECULE: O=C(NCc1ccc(NC(=O)c2ccc(C(F)(F)F)cc2)nc1)c1cccnc1
EXPERIMENTAL SYSTEM: nicotinamide phosphoribosyl transferase (NAMPT) (Homo sapiens, UniProt P43490)
Evaluation on NAMPT inhibitory: ○
//
MOLECULE: O=C(NCCCOCCOCCCNC(=O)c1cnc2ccccc2c1)c1cccnc1
EXPERIMENTAL SYSTEM: nicotinamide phosphoribosyl transferase (NAMPT) (Homo sapiens, UniProt P43490)
Evaluation on NAMPT inhibitory: ○
//
MOLECULE: CCC(C)(C)C(=O)Nc1ccc(CNC(=O)c2cccnc2)cn1
EXPERIMENTAL SYSTEM: nicotinamide phosphoribosyl transferase (NAMPT) (Homo sapiens, UniProt P43490)
Evaluation on NAMPT inhibitory: ○
//
MOLECULE: O=C(NCc1ccc(NC(=O)c2cc(F)cc(F)c2)nc1)c1cccnc1
EXPERIMENTAL SYSTEM: nicotinamide phosphoribosyl transferase (NAMPT) (Homo sapiens, UniProt P43490)
Evaluation on NAMPT inhibitory: ○

Sure, the documented Evaluation on NAMPT inhibitory for N#Cc1ccc(/C=C/C(=O)Nc2ccc(CNC(=O)c3cccnc3)cn2)cc1 is ○

// Evaluation on NAMPT inhibitory lookup, molecule = CC(C)(C)OC(=O)NCCOCCOCCNC(=O)c1cccnc1 , result: ○

Value of Evaluation on NAMPT inhibitory reported for the molecule O=C(NCc1ccc(CNC(=O)c2cccnc2)nc1)c1cccnc1 is ○

Value of Evaluation on NAMPT inhibitory reported for the molecule O=C(/C=C/c1ccccc1)Nc1ccc(CNC(=O)c2cccnc2)cn1 is ○

Form field Evaluation on NAMPT inhibitory, entry O=C(NCc1ccc(CNC(=O)c2ccccc2)nc1)c1cccnc1 : ○

# Evaluation on NAMPT inhibitory of COc1ccc(C(=O)Nc2ccc(CNC(=O)c3cccnc3)cn2)cc1 = ○

O=C(NCCOCCOc1ccc(CNC(=O)c2ccccc2)cc1)c1cccnc1 yielded Evaluation on NAMPT inhibitory of ○

---

test system: primary cultured cells of mouse fetus-derived dorsal root ganglia (DRGs); assay: Suppression of axonal degeneration after axotomy in DRG explant culture; format: cell-based; conditions: Mus musculus; minimum concentration at which axonal degeneration was suppressed (DI 0.3 or less); 24 hours after axotomy; read-out: Evaluation on protection against degeneration
Kindly supply the reported minimal effective concentration values for the records listed here.

In plain terms, Cc1ccc(CC(=O)Nc2ccc(CNC(=O)c3cccnc3)cn2)cc1 has a documented minimal effective concentration of ≤ 0.01 µM

Entry Cc1ccc(C(=O)Nc2ccc(CNC(=O)c3cccnc3)cn2)cc1C , minimal effective concentration reported as ≤ 0.01 µM

minimal effective concentration recorded for this compound, O=C(CNC(=O)c1cccnc1)NCCCCCCNC(=O)CNC(=O)c1cccnc1 , is ≤ 0.01 µM

Noted for COc1cccc(OCCCNC(=O)/C=C/c2cccnc2)c1 : its minimal effective concentration reads ≤ 0.01 µM

# minimal effective concentration (compound: O=C(/C=C/c1cccnc1)NCCOCCNC(=O)/C=C/c1cccnc1 ) is 0.01 to 0.1 µM

Value of measured minimal effective concentration for the entry O=C(NCc1ccc(NC(=O)c2ccccc2C(F)(F)F)nc1)c1cccnc1 : 0.01 to 0.1 µM

minimal effective concentration measured on O=C(NCc1ccc(NC(=O)C23CC4CC(CC(C4)C2)C3)nc1)c1cccnc1 = 0.01 to 0.1 µM

# compound O=C(CCc1ccccc1)Nc1ccc(CNC(=O)c2cccnc2)cn1 ; its minimal effective concentration = ≤ 0.01 µM

Recorded result, COc1ccc(C(=O)Nc2ccc(CNC(=O)c3cccnc3)cn2)cc1 , minimal effective concentration: ≤ 0.01 µM

The reported minimal effective concentration of the compound O=C(Cc1cccc(C(F)(F)F)c1)Nc1ccc(CNC(=O)c2cccnc2)cn1 was ≤ 0.01 µM

get_value(item= O=C(NCc1ccc(NC(=O)C2CCOCC2)nc1)c1cccnc1 , readout=minimal effective concentration) returns ≤ 0.01 µM

Form: compound = C#CCOCCOCCNC(=O)c1cccnc1 ; minimal effective concentration = 0.01 to 0.1 µM

Record NCc1cccc(CNC(=O)c2cccnc2)n1 , field minimal effective concentration: 0.1 to 1 µM

Value of minimal effective concentration reported for the compound O=C(C#Cc1ccccc1)Nc1ccc(CNC(=O)c2cccnc2)cn1 is 0.01 to 0.1 µM

For reference, reported minimal effective concentration for O=C(/C=C/c1cccnc1)NCc1ccc(NC(=O)c2ccccc2)nc1 stands at ≤ 0.01 µM

Briefly, minimal effective concentration measured for COC(=O)c1ccc(OCCOCCNC(=O)/C=C/c2cccnc2)cc1 : ≤ 0.01 µM

Measured minimal effective concentration of CCC(C)(C)C(=O)Nc1ccc(CNC(=O)c2cccnc2)cn1 : 0.01 to 0.1 µM

Please fill in: minimal effective concentration reported for O=C(COc1ccccc1)Nc1ccc(CNC(=O)c2cccnc2)cn1 = ≤ 0.01 µM

For this compound ( Cc1ccc(C(=O)Nc2ccc(CNC(=O)c3cccnc3)cn2)cc1 ), measured minimal effective concentration is ≤ 0.01 µM

---

biological target: hSARM1 (Homo sapiens, UniProt Q6SZW1); assay: Human SARM1 activity measurement in HEK293 cells transiently transfected with ΔN-hSARM1 (PC6 fluorescent probe); assay type: cell-based; design: expressed in transfected cells; host or cells: HEK293, pcDNA3 expression vector; settings: inhibition rate; compound 30 µM; PC6 50 µM; HEK293 cells expressing ΔN-hSARM1; approximately 48 hours from transfection; read-out: Evaluation on hSARM1 inhibitory
Sequence (Q6SZW1 28-724): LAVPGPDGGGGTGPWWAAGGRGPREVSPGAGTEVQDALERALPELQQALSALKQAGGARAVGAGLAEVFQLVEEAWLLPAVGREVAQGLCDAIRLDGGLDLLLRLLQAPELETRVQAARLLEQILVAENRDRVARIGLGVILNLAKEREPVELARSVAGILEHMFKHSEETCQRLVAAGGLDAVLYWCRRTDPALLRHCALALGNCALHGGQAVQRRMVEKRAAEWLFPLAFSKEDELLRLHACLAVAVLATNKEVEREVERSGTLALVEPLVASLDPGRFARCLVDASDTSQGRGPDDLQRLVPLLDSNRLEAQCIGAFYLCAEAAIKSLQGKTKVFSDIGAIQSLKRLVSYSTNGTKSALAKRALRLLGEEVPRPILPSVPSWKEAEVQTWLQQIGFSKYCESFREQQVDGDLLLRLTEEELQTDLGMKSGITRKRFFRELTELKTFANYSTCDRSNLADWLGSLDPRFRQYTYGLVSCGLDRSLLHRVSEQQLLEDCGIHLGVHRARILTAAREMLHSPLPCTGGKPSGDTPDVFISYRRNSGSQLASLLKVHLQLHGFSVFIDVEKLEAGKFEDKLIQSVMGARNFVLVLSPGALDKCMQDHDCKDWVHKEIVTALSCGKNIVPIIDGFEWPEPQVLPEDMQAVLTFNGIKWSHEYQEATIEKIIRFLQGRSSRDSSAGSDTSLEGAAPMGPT
MEASUREMENT LABEL: inhibition at 30 µM

Form field inhibition at 30 µM for item N#Cc1ccc(C(=O)Nc2ccc(CNC(=O)c3cccnc3)cn2)cc1 on hSARM1 (Homo sapiens, UniProt Q6SZW1): > 50%

hSARM1 (Homo sapiens, UniProt Q6SZW1) assay, molecule O=C(/C=C/c1cccnc1)NCCCOCCOCCCNC(=O)/C=C/c1cccnc1 , recorded inhibition at 30 µM = > 75%

Recorded inhibition at 30 µM for O=C(NCc1ccc(NC(=O)c2ccccc2)nc1)c1cccnc1 on hSARM1 (Homo sapiens, UniProt Q6SZW1) was > 50%

Noted inhibition at 30 µM for O=C(NCCCNS(=O)(=O)c1ccccc1[N+](=O)[O-])c1cccnc1 , tested on hSARM1 (Homo sapiens, UniProt Q6SZW1): > 10%

The observed inhibition at 30 µM for O=C(/C=C/c1cccnc1)NCc1ccc(NC(=O)/C=C/c2cccnc2)cc1 when tested with hSARM1 (Homo sapiens, UniProt Q6SZW1) stands at > 75%

For O=C(NCCN(CCNC(=O)c1cccnc1)C(=O)c1cccnc1)c1cccnc1 on hSARM1 (Homo sapiens, UniProt Q6SZW1), measured inhibition at 30 µM was > 10%

hSARM1 (Homo sapiens, UniProt Q6SZW1) inhibition at 30 µM of O=C(NCCCC1NC(=O)C(CCCNC(=O)c2cccnc2)NC1=O)c1cccnc1 (stereo not drawn) is > 10%

Log: hSARM1 (Homo sapiens, UniProt Q6SZW1), molecule CC(C)(C)OC(=O)N1CC(C(=O)Nc2ccc(CNC(=O)c3cccnc3)cn2)C1 , inhibition at 30 µM = > 75%

Entry O=C(/C=C/c1cccnc1)NCCCCCCN1CCN(CCO)CC1 : inhibition at 30 µM on hSARM1 (Homo sapiens, UniProt Q6SZW1) = > 75%
